target: UniProt Q8I2B1; assay: IC50 for competition of protein binding to Kinobeads; conditions: assay detail: Kinobeads competition in P. falciparum blood-stage lysate;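 note: native unpurified kinases from lysate captured on beads bearing immobilized kinase inhibitors, with bead-bound kinases quantified by mass spectrometry across compound doses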
valueType: IC50

Challenge: May I ask what IC50 has been recorded for O=c1[nH]c2ccc(Cl)cc2c(NC2CN3CCC2CC3)c1-c1nc2ccccc2[nH]1 (stereo unspecified) ?
Response given: > 20 µM

---

molecular target: UniProt Q8IEF5; experiment: IC50 for competition of protein binding to Kinobeads; settings: assay detail: Kinobeads competition in P. falciparum blood-stage lysate
pIC50: −log10 of the molar value.
valueType: pIC50

Challenge: For the record O=c1[nH]c2ccc(Cl)cc2c(NC2CN3CCC2CC3)c1-c1nc2ccccc2[nH]1 (stereo unspecified) , what value of pIC50 is listed for UniProt Q8IEF5?
Response given: < 4.70

---

molecular target: UniProt O77312; test: IC50 for competition of protein binding to Kinobeads; settings: assay detail: Kinobeads competition in P. falciparum blood-stage lysate
pIC50: −log10 of the molar value.
valueType: pIC50

Challenge: API: value(readout=pIC50, system=UniProt O77312) for record O=c1[nH]c2ccc(Cl)cc2c(NC2CN3CCC2CC3)c1-c1nc2ccccc2[nH]1 (stereo unspecified)
Response given: < 4.70

---

Target: UniProt Q8I3X4
Sequence (whole entry): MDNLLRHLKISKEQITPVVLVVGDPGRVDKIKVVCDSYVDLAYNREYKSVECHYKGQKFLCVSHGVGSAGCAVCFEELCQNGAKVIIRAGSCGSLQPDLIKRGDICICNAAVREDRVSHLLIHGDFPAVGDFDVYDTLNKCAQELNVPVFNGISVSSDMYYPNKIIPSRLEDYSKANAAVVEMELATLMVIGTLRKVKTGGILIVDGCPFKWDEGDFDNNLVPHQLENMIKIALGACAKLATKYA
Assay: IC50 for competition of protein binding to Kinobeads
Conditions: assay detail: Kinobeads competition in P. falciparum blood-stage lysate
pIC50: −log10 of the molar value.
valueType: pIC50

Challenge: Consider the compound O=c1[nH]c2ccc(Cl)cc2c(NC2CN3CCC2CC3)c1-c1nc2ccccc2[nH]1 (stereo unspecified) and give its measured pIC50.
Response given: < 4.70

---

target: UniProt Q8I4Y5; assay: IC50 for competition of protein binding to Kinobeads; settings: assay detail: Kinobeads competition in P. falciparum blood-stage lysate
valueType: IC50

Challenge: Can you share its IC50? I mean this compound: O=c1[nH]c2ccc(Cl)cc2c(NC2CN3CCC2CC3)c1-c1nc2ccccc2[nH]1 (stereo unspecified)
Response given: > 20 µM

---

biological target: UniProt Q8IAR7; test: IC50 for competition of protein binding to Kinobeads; settings: assay detail: Kinobeads competition in P. falciparum blood-stage lysate
pIC50: −log10 of the molar value.
valueType: pIC50

Challenge: Fill blank: measured pIC50 of the compound O=c1[nH]c2ccc(Cl)cc2c(NC2CN3CCC2CC3)c1-c1nc2ccccc2[nH]1 (stereo unspecified) [CHIR-124] is ____.
Response given: < 4.70

---

target: UniProt Q8IIB4; experiment: IC50 for competition of protein binding to Kinobeads; conditions: assay detail: Kinobeads competition in P. falciparum blood-stage lysate
valueType: IC50

Challenge: Which IC50 is listed for O=c1[nH]c2ccc(Cl)cc2c(NC2CN3CCC2CC3)c1-c1nc2ccccc2[nH]1 (stereo unspecified) ?
Response given: > 20 µM

---

target: UniProt Q8IIW2; assay: IC50 for competition of protein binding to Kinobeads; conditions: assay detail: Kinobeads competition in P. falciparum blood-stage lysate
valueType: IC50

Challenge: Data request, read-out IC50, for O=c1[nH]c2ccc(Cl)cc2c(NC2CN3CCC2CC3)c1-c1nc2ccccc2[nH]1 (stereo unspecified)
Response given: > 20 µM

---

target: UniProt Q76NN8; experiment: IC50 for competition of protein binding to Kinobeads; details: assay detail: Kinobeads competition in P. falciparum blood-stage lysate
pIC50: −log10 of the molar value.
valueType: pIC50

Challenge: Need pIC50 of O=c1[nH]c2ccc(Cl)cc2c(NC2CN3CCC2CC3)c1-c1nc2ccccc2[nH]1 (stereo unspecified) [CHIR-124] , thanks.
Response given: < 4.70

---

target: UniProt Q8IL71; experiment: IC50 for competition of protein binding to Kinobeads; details: assay detail: Kinobeads competition in P. falciparum blood-stage lysate
valueType: IC50

Challenge: Lab request: please report IC50 under test system UniProt Q8IL71 for O=c1[nH]c2ccc(Cl)cc2c(NC2CN3CCC2CC3)c1-c1nc2ccccc2[nH]1 (stereo unspecified)
Response given: > 20 µM

---

molecular target: UniProt C6KT76; test: IC50 for competition of protein binding to Kinobeads; details: assay detail: Kinobeads competition in P. falciparum blood-stage lysate
valueType: IC50

Challenge: What value of IC50 has been reported for the following molecule? O=c1[nH]c2ccc(Cl)cc2c(NC2CN3CCC2CC3)c1-c1nc2ccccc2[nH]1 (stereo unspecified)
Response given: > 20 µM

---

target: UniProt P46468; experiment: IC50 for competition of protein binding to Kinobeads; settings: assay detail: Kinobeads competition in P. falciparum blood-stage lysate
Sequence (P46468 whole entry): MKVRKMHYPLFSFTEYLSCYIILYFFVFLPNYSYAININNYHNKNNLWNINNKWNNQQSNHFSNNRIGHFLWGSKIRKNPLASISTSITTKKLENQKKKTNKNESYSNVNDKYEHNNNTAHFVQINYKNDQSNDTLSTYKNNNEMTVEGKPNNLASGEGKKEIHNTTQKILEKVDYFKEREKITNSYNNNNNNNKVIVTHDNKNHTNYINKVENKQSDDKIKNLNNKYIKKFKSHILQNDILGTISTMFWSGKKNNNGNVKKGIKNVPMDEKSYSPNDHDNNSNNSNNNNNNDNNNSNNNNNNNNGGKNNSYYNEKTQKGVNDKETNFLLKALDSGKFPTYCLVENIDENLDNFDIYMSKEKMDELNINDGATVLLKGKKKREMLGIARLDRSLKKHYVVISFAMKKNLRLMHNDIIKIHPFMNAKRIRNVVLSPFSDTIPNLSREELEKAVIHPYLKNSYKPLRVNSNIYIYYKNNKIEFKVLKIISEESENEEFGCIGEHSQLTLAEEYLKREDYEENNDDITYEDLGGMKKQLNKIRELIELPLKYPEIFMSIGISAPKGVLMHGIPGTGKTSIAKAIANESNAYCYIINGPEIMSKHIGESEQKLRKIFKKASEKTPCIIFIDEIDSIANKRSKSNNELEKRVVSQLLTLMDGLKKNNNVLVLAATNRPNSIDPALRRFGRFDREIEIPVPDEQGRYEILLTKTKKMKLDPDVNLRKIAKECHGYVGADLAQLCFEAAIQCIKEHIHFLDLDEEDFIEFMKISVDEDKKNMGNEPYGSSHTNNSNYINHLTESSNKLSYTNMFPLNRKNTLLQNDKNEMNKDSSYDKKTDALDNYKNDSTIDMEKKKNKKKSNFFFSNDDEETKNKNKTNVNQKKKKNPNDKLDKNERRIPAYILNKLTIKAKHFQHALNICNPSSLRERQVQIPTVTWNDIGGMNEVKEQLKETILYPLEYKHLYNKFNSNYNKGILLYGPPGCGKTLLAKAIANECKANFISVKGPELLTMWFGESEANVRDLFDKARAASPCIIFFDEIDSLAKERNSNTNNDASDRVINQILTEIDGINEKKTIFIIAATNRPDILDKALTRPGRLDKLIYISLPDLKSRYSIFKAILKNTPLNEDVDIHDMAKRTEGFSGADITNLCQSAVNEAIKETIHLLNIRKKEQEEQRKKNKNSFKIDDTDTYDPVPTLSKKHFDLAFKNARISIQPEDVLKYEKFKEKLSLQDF
valueType: IC50

Challenge: # input compound: O=c1[nH]c2ccc(Cl)cc2c(NC2CN3CCC2CC3)c1-c1nc2ccccc2[nH]1 (stereo unspecified) [CHIR-124] ; wanted: its IC50
Response given: > 20 µM

---

biological target: UniProt Q8I3J0; test: IC50 for competition of protein binding to Kinobeads; conditions: assay detail: Kinobeads competition in P. falciparum blood-stage lysate
valueType: IC50

Challenge: Requested field: IC50. Item: O=c1[nH]c2ccc(Cl)cc2c(NC2CN3CCC2CC3)c1-c1nc2ccccc2[nH]1 (stereo unspecified)
Response given: > 20 µM

---

target: UniProt Q8IE43; test: IC50 for competition of protein binding to Kinobeads; details: assay detail: Kinobeads competition in P. falciparum blood-stage lysate
valueType: IC50

Challenge: Would you kindly share the measured IC50 for O=c1[nH]c2ccc(Cl)cc2c(NC2CN3CCC2CC3)c1-c1nc2ccccc2[nH]1 (stereo unspecified) ?
Response given: > 20 µM

---

biological target: UniProt Q8I468; assay: IC50 for competition of protein binding to Kinobeads; conditions: assay detail: Kinobeads competition in P. falciparum blood-stage lysate
valueType: IC50

Challenge: Entry O=c1[nH]c2ccc(Cl)cc2c(NC2CN3CCC2CC3)c1-c1nc2ccccc2[nH]1 (stereo unspecified) has what IC50?
Response given: > 20 µM

---

target: UniProt Q8IEN3; assay: IC50 for competition of protein binding to Kinobeads; conditions: assay detail: Kinobeads competition in P. falciparum blood-stage lysate
valueType: IC50

Challenge: Look at this compound and give its reported IC50. O=c1[nH]c2ccc(Cl)cc2c(NC2CN3CCC2CC3)c1-c1nc2ccccc2[nH]1 (stereo unspecified) [CHIR-124]
Response given: > 20 µM

---

molecular target: UniProt Q8ILT0; assay: IC50 for competition of protein binding to Kinobeads; settings: assay detail: Kinobeads competition in P. falciparum blood-stage lysate
valueType: IC50

Challenge: Which IC50 is reported for this compound? O=c1[nH]c2ccc(Cl)cc2c(NC2CN3CCC2CC3)c1-c1nc2ccccc2[nH]1 (stereo unspecified)
Response given: > 20 µM

---

target: UniProt Q8ILC8; test: IC50 for competition of protein binding to Kinobeads; details: assay detail: Kinobeads competition in P. falciparum blood-stage lysate
valueType: IC50

Challenge: Could you tell me which IC50 is on file for O=c1[nH]c2ccc(Cl)cc2c(NC2CN3CCC2CC3)c1-c1nc2ccccc2[nH]1 (stereo unspecified) ?
Response given: > 20 µM

---

biological target: UniProt C6KTC6; assay: IC50 for competition of protein binding to Kinobeads; conditions: assay detail: Kinobeads competition in P. falciparum blood-stage lysate
valueType: IC50

Challenge: // lookup IC50 | system=UniProt C6KTC6 | key= O=c1[nH]c2ccc(Cl)cc2c(NC2CN3CCC2CC3)c1-c1nc2ccccc2[nH]1 (stereo unspecified)
Response given: > 20 µM

---

target: UniProt C0H4K6; assay: IC50 for competition of protein binding to Kinobeads; settings: assay detail: Kinobeads competition in P. falciparum blood-stage lysate
pIC50: −log10 of the molar value.
valueType: pIC50

Challenge: For the compound shown here, O=c1[nH]c2ccc(Cl)cc2c(NC2CN3CCC2CC3)c1-c1nc2ccccc2[nH]1 (stereo unspecified) , give the reported pIC50.
Response given: < 4.70

---

biological target: UniProt Q8IM27; assay: IC50 for competition of protein binding to Kinobeads; details: assay detail: Kinobeads competition in P. falciparum blood-stage lysate
pIC50: −log10 of the molar value.
valueType: pIC50

Challenge: Given the compound O=c1[nH]c2ccc(Cl)cc2c(NC2CN3CCC2CC3)c1-c1nc2ccccc2[nH]1 (stereo unspecified) , what is its reported pIC50?
Response given: < 4.70

---

Target: UniProt O97313
Sequence (whole entry): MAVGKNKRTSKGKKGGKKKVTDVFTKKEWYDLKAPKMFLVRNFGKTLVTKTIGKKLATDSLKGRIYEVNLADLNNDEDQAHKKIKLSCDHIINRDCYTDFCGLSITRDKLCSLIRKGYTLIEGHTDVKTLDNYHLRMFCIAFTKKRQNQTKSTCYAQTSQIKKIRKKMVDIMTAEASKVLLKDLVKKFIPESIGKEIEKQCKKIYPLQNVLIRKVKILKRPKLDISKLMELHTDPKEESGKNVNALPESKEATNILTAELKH
Experiment: IC50 for competition of protein binding to Kinobeads
Conditions: assay detail: Kinobeads competition in P. falciparum blood-stage lysate
valueType: IC50

Challenge: For UniProt O97313, provide IC50 of O=c1[nH]c2ccc(Cl)cc2c(NC2CN3CCC2CC3)c1-c1nc2ccccc2[nH]1 (stereo unspecified) [CHIR-124] please.
Response given: > 20 µM
